# Lookup of reported Activity keyed by entry
Target: Toll-like receptor 4 (Mus musculus)
Assay: Activation of mouse TLR4 transfected in HEK293 cells after 18 hrs by SEAP assay relative to N-cyclohexyl-2-(4-oxo-3-phenyl-4,5-dihydro-3H-pyrimido[5,4-b]indol-2-ylthio)acetamide
Assay type: cell-based

cpd smiles | Activity
Cc1ccc(-n2c(SCC(=O)NC3CCCCC3)nc3c([nH]c4ccccc43)c2=O)cc1 | 2%
O=C(CSc1nc2c([nH]c3ccccc32)c(=O)n1-c1ccccc1)NC1CCNCC1 | < 1%
COC(=O)CCCn1c2ccccc2c2nc(SCC(=O)NC3CCCCC3)n(-c3ccccc3)c(=O)c21 | 9%
